Taken from paper PMC10819019.

# experiment summary: Metabolite profiling in rats (bile, plasma, liver)
# Assay type: in vivo, male Sprague–Dawley rats
# experimental context: saxagliptin 100 mg/kg intraperitoneal injection, samples up to 4 h
property measured: Metabolite detection in rat bile, plasma and liver tissues

{"compound": "NC(C(=O)N1C(C2=NC(C(=O)O)CS2)CC2CC21)C12CC3CC(CC(O)(C3)C1)C2 (centres unmarked) [Metabolite M3, Saxagliptin–cysteine conjugate]", "result": "observed in rats"}
{"compound": "NC(C(=O)N1C(C2=NC(C(=O)NCC(=O)O)CS2)CC2CC21)C12CC3CC(O)(CC(O)(C3)C1)C2 (centres unmarked) [Metabolite M6]", "result": "observed in rats"}
